The reported numbers originate from patent US20130172248A1.

Kindly state S1P1 receptor activation, % activation for each of the entries shown.
Tested on: human S1P1 receptor
runDescription: Determination of S1P1 receptor activation (intracellular calcium release, FLIPR, CHO cells)
Assay type: cell-based
conditionParameters: compound at 10 μM; in percent of activation by 100 nM S1P
Reply with the number, then its unit.

Solved entries:
{"columns": ["smilesText", "targetEntity", "result"],
 "data": [
  ["CC#C[C@@H](CC(=O)O)c1ccc(NC(=O)C(=O)Nc2cccc(C(C)(C)C)c2)cc1", "human S1P1 receptor", "1%"],
  ["CC#C[C@@H](CC(=O)O)c1ccc(NC(=O)C(=O)Nc2cccc(C(C)C)c2)cc1", "human S1P1 receptor", "0%"],
  ["CC#C[C@@H](CC(=O)O)c1ccc(NC(=O)C(=O)Nc2cc(C(F)(F)F)ccc2Cl)cc1", "human S1P1 receptor", "0%"],
  ["CC#C[C@@H](CC(=O)O)c1ccc(NC(=O)C(=O)Nc2cc(C(F)(F)F)ccc2C(F)(F)F)cc1", "human S1P1 receptor", "0%"]
]}

Next molecule, please.
// query Using the record for CC#C[C@@H](CC(=O)O)c1ccc(NC(=O)C(=O)Nc2cc(C(F)(F)F)ccc2C)cc1 , state its measured S1P1 receptor activation, % activation.
// result 1%
